Source: ChEMBL document CHEMBL1131608

Entries annotated with measured inhibition
biological target: Adenosine receptor A1 (Rattus norvegicus); assay: Binding affinity towards adenosine A1 receptor by measuring its ability to displace [3H]-R-PIA in rat brain membranes at a concentration of 10e-4 M; type: cell membranes
quantityKind: inhibition (%)

CCCOC(=O)c1c(-c2cccc(Cl)c2)nc(CC)c(C(=O)SCCC)c1CC: 41.4
CCOC(=O)C1=C(C)NC(C2CC2)=C(C(=O)OCc2ccccc2)C1C#Cc1ccccc1 (stereo not drawn): 22
CCOC(=O)C1=C(c2ccccc2)N=C(C)/C(=C(/O)OCC)C1C(OC)OC (stereo not drawn): 32

###

test system: HEK293; assay: Selectivity for binding affinity towards A1 adenosine receptor in rat brain membrane and human A3 receptor expressed in HEK cells; type: cell-based
quantityKind: Ratio

CCOC(=O)C1=C(c2ccccc2)N=C(C)/C(=C(/O)OCC)C1C=O (stereo not given): 6
CCSC(=O)c1c(CC)nc(-c2ccccc2)c(C(=O)OCCO)c1CC: 93
CCCOC(=O)c1c(-c2cccc(Cl)c2)nc(CC)c(C(=O)SCCC)c1CC: 5200
CCCSC(=O)c1c(CC)nc(-c2ccccc2)c(C(=O)OCC)c1CC: 520
CCCCc1nc(-c2ccccc2)c(C(=O)OCC)c(CC)c1C(=O)SCC: 1200

###

biological target: Adenosine receptor A2a (Rattus norvegicus) (UniProt P30543); test: Binding affinity towards adenosine A2A receptor by measuring its ability to displace [3H]-CGS- 21680 in rat striatal membranes at a concentration of 10e-4 M; assay type: cell membranes; details: Striatum, Membrane
Sequence (P30543 whole entry): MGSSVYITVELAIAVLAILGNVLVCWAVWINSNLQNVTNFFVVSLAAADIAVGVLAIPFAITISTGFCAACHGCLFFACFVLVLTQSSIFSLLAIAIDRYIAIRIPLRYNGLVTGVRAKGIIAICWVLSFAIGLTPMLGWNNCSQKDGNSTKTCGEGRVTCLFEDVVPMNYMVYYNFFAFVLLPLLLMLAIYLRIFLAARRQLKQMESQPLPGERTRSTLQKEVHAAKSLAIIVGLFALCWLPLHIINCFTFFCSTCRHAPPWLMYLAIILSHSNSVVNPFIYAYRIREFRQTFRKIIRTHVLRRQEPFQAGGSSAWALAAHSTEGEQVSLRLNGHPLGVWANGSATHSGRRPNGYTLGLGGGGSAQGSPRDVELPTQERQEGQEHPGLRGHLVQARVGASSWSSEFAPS
Measured inhibition, listed per entry.
quantityKind: inhibition (%)

CCOC(=O)C1=C(c2ccccc2)N=C(C)/C(=C(/O)SCC)C1CC (stereo not given): 54.8
CCOC(=O)c1c(C)nc(-c2ccccc2)c(C(=O)OCC)c1C: 28.4
CCOC(=O)c1c(-c2ccccc2)nc(CC)c(C(=O)SCC)c1CC: 6.13
CCOC(=O)c1c(C)nc(-c2ccccc2)c(C(=O)OCC)c1C=O: 2.56
CCOC(=O)c1c(C)nc(-c2ccccc2)c(C(=O)OCC)c1C(OC)OC: 2.88
CCOC(=O)c1c(-c2ccccc2)nc(CCOC)c(C(=O)SCC)c1CC: 12.6
CCOC(=O)c1c(-c2ccccc2)nc(C)c(C(=O)SCC)c1CC: 14.9
CCSC(=O)c1c(C)nc(-c2ccccc2)c(C(=O)Oc2ccccc2)c1CC: 12.8
CCOC(=O)c1c(-c2ccccc2)nc(C)c(C(=O)SCCOC)c1CC: 7.98
CCOC(=O)c1c(C2CCCC2)nc(CC)c(C(=O)SCC)c1CC: 26.1
CCOC(=O)c1c(-c2ccccc2)nc(CC)c(C(=O)O)c1CC: 7.09
CCCOC(=O)c1c(C)nc(-c2ccccc2)c(C(=O)OCC)c1C: 24.5
CCOC(=O)c1c(-c2cccc(Cl)c2)nc(CC)c(C(=O)SCC)c1CC: 8.91
CCOC(=O)C1=C(c2ccccc2)N=C(CC)/C(=C(/O)SCC)C1CC (stereo not given): 29.1
CCCOC(=O)c1c(-c2ccccc2)nc(CC)c(C(=O)SCC)c1CCC: 2.05
CCOC(=O)c1c(-c2ccccc2)nc(C2CCC2)c(C(=O)SCC)c1CC: 22
CCSC(=O)c1c(CC)nc(-c2ccccc2)c(C(=O)OCCO)c1CC: 10
CCCc1nc(-c2ccccc2)c(C(=O)OCC)c(CC)c1C(=O)SCC: 2.82
CCCSC(=O)c1c(CC)nc(-c2ccccc2)c(C(=O)OCC)c1CC: 15.7
CCOC(=O)C1=C(c2ccccc2)N=C(C)/C(=C(/O)OCC)C1/C=C/c1ccccc1 (stereo not given): 4.77
CCOC(=O)C1=C(c2ccccc2)N=C(C)/C(=C(/O)OCC)C1C=O (stereo not given): 32
CCOC(=O)c1c(C)nc(-c2ccccc2)c(C(=O)OCC)c1CC: 3.69
CCCc1c(C(=O)SCC)c(C)nc(-c2ccccc2)c1C(=O)OCC: 7.53
CCCOC(=O)c1c(-c2cccc(Cl)c2)nc(CC)c(C(=O)SCCC)c1CC: 24.1
CCOC(=O)c1c(CC)nc(-c2ccccc2)c(C(=O)OCC)c1C: 13.4
